TGT: Adenosine receptor A1 (Rattus norvegicus, UniProt P25099)
Sequence (P25099 whole entry): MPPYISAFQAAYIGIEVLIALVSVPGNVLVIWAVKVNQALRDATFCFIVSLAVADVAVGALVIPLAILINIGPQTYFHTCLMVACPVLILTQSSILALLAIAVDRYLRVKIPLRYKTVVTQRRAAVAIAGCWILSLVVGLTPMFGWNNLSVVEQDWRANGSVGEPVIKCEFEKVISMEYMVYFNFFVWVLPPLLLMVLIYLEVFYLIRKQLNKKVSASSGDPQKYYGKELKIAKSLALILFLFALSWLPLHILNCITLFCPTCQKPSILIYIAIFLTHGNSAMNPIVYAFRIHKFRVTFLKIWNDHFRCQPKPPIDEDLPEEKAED
METHOD: Binding affinity for adenosine A1 receptor, was assessed from the ability to displace [3H]-DPCPX (without GTP) from rat cortical membranes.
pKi: −log10 of the molar value.
Below, each entry is listed with its recorded pKi.
MEASURED ENDPOINT: pKi

>  <STRUCTURE SMILES STRING>
OC[C@H]1O[C@@H](n2cnc3c(NC4CCCCC4)ncnc32)C[C@@H]1O

>  <TGT>
Adenosine receptor A1 (Rattus norvegicus, UniProt P25099)

>  <MEASURED ENDPOINT>
pKi

>  <VALUE OBSERVED>
6.39

$$$$
>  <STRUCTURE SMILES STRING>
OC[C@H]1O[C@@H](n2cnc3c(NC4CCCCC4)nc(Cl)nc32)C[C@@H]1O

>  <TGT>
Adenosine receptor A1 (Rattus norvegicus, UniProt P25099)

>  <MEASURED ENDPOINT>
pKi

>  <VALUE OBSERVED>
6.30

$$$$
>  <STRUCTURE SMILES STRING>
OC[C@H]1O[C@@H](n2cnc3c(NC4CCC4)ncnc32)C[C@@H]1O

>  <TGT>
Adenosine receptor A1 (Rattus norvegicus, UniProt P25099)

>  <MEASURED ENDPOINT>
pKi

>  <VALUE OBSERVED>
6.28

$$$$
>  <STRUCTURE SMILES STRING>
OC[C@H]1O[C@@H](n2cnc3c(NC4CCCC4)nc(Cl)nc32)C[C@@H]1O

>  <TGT>
Adenosine receptor A1 (Rattus norvegicus, UniProt P25099)

>  <MEASURED ENDPOINT>
pKi

>  <VALUE OBSERVED>
6.81

$$$$
>  <STRUCTURE SMILES STRING>
OC[C@H]1O[C@@H](n2cnc3c(NC4CCCCCC4)nc(Cl)nc32)C[C@@H]1O

>  <TGT>
Adenosine receptor A1 (Rattus norvegicus, UniProt P25099)

>  <MEASURED ENDPOINT>
pKi

>  <VALUE OBSERVED>
6.43

$$$$
>  <STRUCTURE SMILES STRING>
OC[C@H]1O[C@@H](n2cnc3c(NC4CCCCCCC4)ncnc32)C[C@@H]1O

>  <TGT>
Adenosine receptor A1 (Rattus norvegicus, UniProt P25099)

>  <MEASURED ENDPOINT>
pKi

>  <VALUE OBSERVED>
6.23

$$$$

---

TGT: UniProt P25099
MEASURED ENDPOINT: log10 of Ki (log10 of the value in µM)

>  <STRUCTURE SMILES STRING>
OC[C@H]1O[C@@H](n2cnc3c(NC4CCCCCC4)nc(Cl)nc32)C[C@@H]1O

>  <log10 of Ki>
0.04

$$$$
>  <STRUCTURE SMILES STRING>
OC[C@H]1O[C@@H](n2cnc3c(NC4CCC4)nc(Cl)nc32)C[C@@H]1O

>  <log10 of Ki>
0.56

$$$$
>  <STRUCTURE SMILES STRING>
OC[C@H]1O[C@@H](n2cnc3c(NC4CCCCC4)nc(Cl)nc32)C[C@@H]1O

>  <log10 of Ki>
0.41

$$$$
>  <STRUCTURE SMILES STRING>
OC[C@H]1O[C@@H](n2cnc3c(NC4CCCC4)ncnc32)C[C@@H]1O

>  <log10 of Ki>
1.01

$$$$
>  <STRUCTURE SMILES STRING>
OC[C@H]1O[C@@H](n2cnc3c(NC4CCCCCCC4)nc(Cl)nc32)C[C@@H]1O

>  <log10 of Ki>
0.15

$$$$
>  <STRUCTURE SMILES STRING>
OC[C@H]1O[C@@H](n2cnc3c(NC4CCCCCCC4)ncnc32)C[C@@H]1O

>  <log10 of Ki>
0.97

$$$$
>  <STRUCTURE SMILES STRING>
OC[C@H]1O[C@@H](n2cnc3c(NC4CCCC4)nc(Cl)nc32)C[C@@H]1O

>  <log10 of Ki>
0.12

$$$$
>  <STRUCTURE SMILES STRING>
OC[C@H]1O[C@@H](n2cnc3c(NC4CCCCCC4)ncnc32)C[C@@H]1O

>  <log10 of Ki>
1.31

$$$$
>  <STRUCTURE SMILES STRING>
OC[C@H]1O[C@@H](n2cnc3c(NC4CCC4)ncnc32)C[C@@H]1O

>  <log10 of Ki>
1.37

$$$$
>  <STRUCTURE SMILES STRING>
OC[C@H]1O[C@@H](n2cnc3c(NC4CC4)nc(Cl)nc32)C[C@@H]1O

>  <log10 of Ki>
1.16

$$$$
>  <STRUCTURE SMILES STRING>
OC[C@H]1O[C@@H](n2cnc3c(NC4CCCCC4)ncnc32)C[C@@H]1O

>  <log10 of Ki>
1.22

$$$$

Hello, the source for this data is ChEMBL document CHEMBL1133444, in case you need it.
